All values here come from PubChem BioAssay (NCI).

- method.description: NCI Yeast Anticancer Drug Screen. Data for the bub3 strain (AID 167)
- condition.description: S. cerevisiae bub3 mutant strain, at 5.0 µM (retest, dose inferred, filed as 0.5)
The panel holds about 79,000 compounds, 15% with a hit somewhere; the sample as a whole holds those more often. The source made the active and inactive calls. No stated cut-off is given here; in the data, active means growth inhibition above about 70%; inactive means the rest.
Pick one: 1 for active, -1 for inactive

Please review the following examples before continuing.
molecule: COC(=O)/C(C#N)=C1\NC(=O)CC(c2ccccc2)C1C#N (stereo unspecified)
class.label: -1
//
molecule: COC12C=CC(CC1)c1c2c(O)c2ccncc2c1O (stereo unspecified)
class.label: -1
//
molecule: Clc1nn2nnnc2c2ccccc12
class.label: -1
//
molecule: CCCC/C=C(/CCCNCCCC)[Si](C)(C)C
class.label: 1

Asked: Just curious, what result did CC(C)=CC1C(COC(=O)CCl)C1(C)C (stereo unspecified) get here?
Given back: -1

Asked: Just curious, what result did COC(C)(C)[C@@H]1CCCN1C1=C(C)C(=O)OC1 get here?
Given back: 1
